target: T1, Cyno HER3: CD33-[Cyno HER3, residues 20-643]-TAG (cynomolgus monkey, UniProt G7PIG5 20-643); test: solution equilibrium titration (SET), IgG, ECL read-out
T1 construct: also called cy HER3-Tag; not shown: C-terminal TAG (e.g. FLAG TAG)
pKd: −log10 of the molar value.

binder	pKd
MOR14533 (antibody, human IgG1, kappa, V domains shown, Tested as IgG) VH: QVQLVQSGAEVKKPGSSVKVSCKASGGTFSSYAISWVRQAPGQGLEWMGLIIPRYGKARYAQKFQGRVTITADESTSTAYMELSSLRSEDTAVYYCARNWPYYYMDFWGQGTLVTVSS VL: EIVLTQSPATLSLSPGERATLSCRASQNIVFNLAWYQQKPGQAPRLLIYDASNRATGIPARFSGSGSGTDFTLTISSLEPEDFAVYYCQQTKSKPSPTFGQGTKVEIKR	8.53
MOR14538 (antibody, human IgG1, lambda, V domains shown, Tested as IgG) VH: QVQLVQSGAEVKKPGASVKVSCKASGYTFTSYDIHWVRQAPGQGLEWMGRIDPYSGNTNYAQKFQGRVTMTRDTSISTAYMELSRLRSDDTAVYYCARGSFYTRDSYFDVWGQGTLVTVSS VL: QSALTQPASVSGSPGQSITISCTGTSSDVGTYNQVSWYQQHPGKAPKLMIYGVSKRPSGVSNRFSGSKSGNTASLTISGLQAEDEADYYCASADHSYHTVFGGGTKLTVLG	10.59
